assayMethodText: Absorption property of the compound in DMSO assessed as maximum absorption wavelength
Format: physicochemical
assayReadout: Activity (nm)

recordSmiles | assayReadout | testResult
COc1n[nH]c2ncc(NC(=O)c3c(F)ccc(/N=N/c4ccc(C)cc4)c3F)cc12 | Activity | 340
COc1ccccc1/N=N/c1ccc(F)c(C(=O)Nc2cnc3[nH]nc(OC)c3c2)c1F | Activity | 334
COc1n[nH]c2ncc(NC(=O)c3c(F)ccc(/N=N/c4ccccc4)c3F)cc12 | Activity | 332
COc1n[nH]c2ncc(NC(=O)c3c(F)ccc(/N=N/c4ccc(F)cc4)c3F)cc12 | Activity | 335
COc1n[nH]c2ncc(NC(=O)c3c(F)ccc(/N=N/c4ccccc4F)c3F)cc12 | Activity | 336
COc1ccc(/N=N/c2cccc(C(=O)Nc3cnc4[nH]nc(OC)c4c3)c2)cc1 | Activity | 352
COc1ccc(/N=N/c2ccc(F)c(C(=O)Nc3cnc4[nH]nc(OC)c4c3)c2F)cc1 | Activity | 357
COc1n[nH]c2ncc(NC(=O)c3c(F)ccc(/N=N/c4ccccc4C)c3F)cc12 | Activity | 335

meta.source: ChEMBL document CHEMBL4364290
